Items are presented alongside their recorded IC50.
# ASSAY TARGET: human β-Secretase (Homo sapiens (Human))
# ASSAY PROTOCOL: TR-FRET assay
# Format: biochemical
Give the value in nM but do not write nM after it.

CO[C@H]1CC[C@]2(CC1)Cc1cc(C)c(Br)cc1C21N=C(C)C(N)=N1 (some centres unmarked); 1660
COC1CCC2(CC1)Cc1cc(F)c(Br)cc1C21N=C(C)C(N)=N1 (centres unmarked); 516

Tell me the measured IC50 of CO[C@H]1CC[C@]2(CC1)Cc1cc(F)c(OCCCF)cc1C21N=C(C)C(N)=N1 (some centres unmarked) , please.
39

Now give it for CO[C@H]1CC[C@]2(CC1)Cc1cc(F)c(-c3cc(Cl)cc(C#N)c3)cc1C21N=C(C)C(N)=N1 (some centres unmarked) too.
23

Try this molecule too: CO[C@H]1CC[C@]2(CC1)Cc1cc(F)c(-c3cncc(Cl)c3)cc1C21N=C(C)C(N)=N1 (some centres unmarked)
36

Cool, now CO[C@H]1CC[C@]2(CC1)Cc1cc(F)c(-c3cc(F)cc(C#N)c3)cc1C21N=C(C)C(N)=N1 (some centres unmarked)
23

====

# System: sAPPβ release, SH-SY5Y cells
# ASSAY PROTOCOL: sAPPβ release assay
# Assay type: cell-based
# RUN CONDITIONS: 17 h incubation
READOUT NAME: IC50 (nM)
Report the value in nM with no unit label.

Item: CO[C@H]1CC[C@]2(CC1)Cc1cc(F)c(-c3cc(F)cc(C#N)c3)cc1[C@@]21N=C(C)C(N)=N1 (single isomer, unassigned; isomer 1) [9 Isomer 1] Test system: sAPPβ release, SH-SY5Y cells Read-out: IC50 Value: ?
7.4

====

Attribute: pIC50
# Tested on: sAPPβ release, SH-SY5Y cells
# ASSAY PROTOCOL: sAPPβ release assay
# Assay type: cell-based
# RUN CONDITIONS: Homo sapiens, 17 h incubation
Value format note: pIC50 is -log10 of concentration (mol/L); just state the number.

Solved cases below.
CO[C@H]1CC[C@]2(CC1)Cc1cc(C)c(-c3cc(Cl)cc(C#N)c3)cc1C21N=C(C)C(N)=N1 (stereo partly shown); 7.92
CC#Cc1cncc(-c2cc3c(cc2C)C[C@]2(CC[C@@H](OC)CC2)C32N=C(C)C(N)=N2)c1 (stereo partly shown); 7.77

Return reported pIC50; argument: CO[C@H]1CC[C@]2(CC1)Cc1cc(F)c(-c3cc(F)cc(C#N)c3)cc1C21N=C(C)C(N)=N1 (stereo partly shown)
8.32

Request: CO[C@H]1CC[C@]2(CC1)Cc1cc(F)c(-c3cncc(Cl)c3)cc1C21N=C(C)C(N)=N1 (stereo partly shown)
8.52

====

# ASSAY TARGET: human β-Secretase (Homo sapiens (Human), UniProt P56817)
# Sequence (P56817 22-460): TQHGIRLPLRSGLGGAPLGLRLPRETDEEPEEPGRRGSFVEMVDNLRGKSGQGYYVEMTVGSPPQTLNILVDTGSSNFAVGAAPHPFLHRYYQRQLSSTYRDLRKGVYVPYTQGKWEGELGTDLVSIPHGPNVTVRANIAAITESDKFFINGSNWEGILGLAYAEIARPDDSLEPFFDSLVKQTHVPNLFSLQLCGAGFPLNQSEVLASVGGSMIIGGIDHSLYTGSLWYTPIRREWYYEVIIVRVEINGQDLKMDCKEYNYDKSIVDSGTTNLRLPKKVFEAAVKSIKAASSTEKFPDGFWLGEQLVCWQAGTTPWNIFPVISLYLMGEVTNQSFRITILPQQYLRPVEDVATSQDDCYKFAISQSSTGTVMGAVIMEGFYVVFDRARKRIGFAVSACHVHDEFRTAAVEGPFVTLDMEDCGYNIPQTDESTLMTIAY
# ASSAY PROTOCOL: Diluted TR-FRET assay
# Format: biochemical
# RUN CONDITIONS: 50 times less enzyme, 6.5 h reaction time; read-out: IC50 in TR-FRET assay (IC50 from the diluted FRET assay)
READOUT NAME: pIC50
Convention used: pIC50 is expressed as -log10 of the molar concentration.

Examples from the recorded data:
CO[C@H]1CC[C@]2(CC1)Cc1cc(F)c(-c3cc(F)cc(C#N)c3)cc1[C@@]21N=C(C)C(N)=N1 (single isomer, unassigned; isomer 1) [9 Isomer 1]; 7.89
CO[C@H]1CC[C@]2(CC1)Cc1cc(F)c(-c3cc(Cl)cc(C#N)c3)cc1[C@@]21N=C(C)C(N)=N1 (single isomer, unassigned; isomer 1) [6 Isomer 1]; 8.62
CO[C@H]1CC[C@]2(CC1)Cc1cc(C)c(-c3cc(Cl)cc(C#N)c3)cc1C21N=C(C)C(N)=N1 (stereo partly shown) [Example 3]; 7.62

Alright, here's another compound for you.
Param readout= pIC50; system= human β-Secretase (Homo sapiens (Human), UniProt P56817); entry= CC#Cc1cncc(-c2cc3c(cc2C)C[C@]2(CC[C@@H](OC)CC2)C32N=C(C)C(N)=N2)c1 (stereo partly shown) [Example 2] ; returns value.
7.82
